Listed binders paired with reported pEC50
# studySystem: T1, human SIRPγ stably expressed on 293F cells (human, UniProt Q9P1W8 29-387)
# T1 construct: whole, on cells
# T1 sequence (Q9P1W8 29-387): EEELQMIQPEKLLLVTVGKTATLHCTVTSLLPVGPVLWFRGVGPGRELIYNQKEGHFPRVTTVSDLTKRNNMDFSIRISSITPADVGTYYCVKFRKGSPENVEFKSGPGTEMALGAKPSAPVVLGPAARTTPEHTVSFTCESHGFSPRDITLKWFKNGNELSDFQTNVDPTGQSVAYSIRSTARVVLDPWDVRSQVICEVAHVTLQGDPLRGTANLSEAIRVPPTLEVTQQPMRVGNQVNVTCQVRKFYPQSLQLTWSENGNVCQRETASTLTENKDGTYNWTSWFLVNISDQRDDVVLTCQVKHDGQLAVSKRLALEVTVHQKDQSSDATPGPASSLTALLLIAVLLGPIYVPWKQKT
# measurementProtocol: FACS, 293F-hSIRPγ cells
# Text: All the humanized antibodies as tested were confirmed to retain the similar activity as the parental antibody of 025c to bind to SIRP family members.
Just so you know, pEC50 here is -log10 of the concentration in molar units; reply with that number alone.

[[record]]
binder = "hu025.023 (antibody, V domains shown, Humanized 025; also called hu025.23) VH: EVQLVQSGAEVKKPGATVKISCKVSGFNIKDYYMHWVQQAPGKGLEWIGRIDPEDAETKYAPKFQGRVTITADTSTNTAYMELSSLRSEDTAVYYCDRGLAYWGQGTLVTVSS VL: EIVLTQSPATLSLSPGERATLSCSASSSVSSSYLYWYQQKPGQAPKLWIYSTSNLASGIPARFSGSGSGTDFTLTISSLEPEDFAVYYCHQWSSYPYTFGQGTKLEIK"
valuereported = 9.70

[[record]]
binder = "hu025.060 (antibody, V domains shown, Humanized 025; also called hu025.60) VH: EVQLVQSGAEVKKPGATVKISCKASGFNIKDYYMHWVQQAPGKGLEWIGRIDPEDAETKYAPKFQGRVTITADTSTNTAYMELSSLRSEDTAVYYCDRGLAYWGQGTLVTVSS VL: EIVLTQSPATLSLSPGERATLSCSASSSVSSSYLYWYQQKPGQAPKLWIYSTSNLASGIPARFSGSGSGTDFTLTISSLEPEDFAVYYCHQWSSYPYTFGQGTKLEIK"
valuereported = 9.66


# input for lookup
What pEC50 value was documented for this binder, hu025.021 (antibody, V domains shown, Humanized 025; also called hu025.21) VH: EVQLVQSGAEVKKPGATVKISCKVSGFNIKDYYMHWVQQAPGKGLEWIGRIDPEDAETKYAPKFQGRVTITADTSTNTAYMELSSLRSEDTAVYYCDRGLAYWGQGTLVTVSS VL: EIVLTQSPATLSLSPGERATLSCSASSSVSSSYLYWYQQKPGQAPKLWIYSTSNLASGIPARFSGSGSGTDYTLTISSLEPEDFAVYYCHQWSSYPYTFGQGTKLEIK ?
9.68
